Test system: 786-0
Assay: NCI tumour cell line growth inhibition, 48 h
The source made the active and inactive calls. Cut-off read from the data, not from the text of the source: active = GI50 up to about 1.1 µM and inactive = higher.
PROPERTY MEASURED: GI50

Record request: GI50 value, item CC(C)C12Cc3c(ccc4ccccc34)OC1(C)Oc1ccc3ccccc3c1C2 (stereo unspecified)
> 100 µM (inactive)

Record request: GI50 value, item C[C@]12CC[C@H](O)CC1=CC[C@@H]1C2CC[C@]2(C)c3n[nH]nc3CC12 (stereo partly specified)
> 100 µM (inactive)

Record request: GI50 value, item `ON=C1CCCCC(=NO)CCCC1`
> 100 µM (inactive)

Record request: GI50 value, item `O=c1oc2ccccc2cc1-c1nc2ccccc2s1`
4.58 µM (inactive)

Would you mind giving GI50 for every compound in the list below?
1. CC(C)OC(=O)NCCn1cc(-c2ccccc2)nn1
2. C[C@@H]1CC[C@@H]2[C@@H](C1)O[C@@H]([C@H](C)OCc1ccccc1)SC2(C)C
3. N#CC1(c2nc3ccccc3o2)C(=O)C(=O)N(c2ccc(Cl)c(Cl)c2)C(=O)C1=O
4. O=c1[nH]n(Cc2ccccc2CCl)c2ccc([N+](=O)[O-])cc12
5. CCOC(=O)C(=O)Nc1cc(Cl)c(Cl)cc1Cl

1. > 100 µM (inactive)
2. 21.2 µM (inactive)
3. > 100 µM (inactive)
4. 55.5 µM (inactive)
5. > 100 µM (inactive)

Would you mind giving GI50 for every compound in the list below?
1. O=C1C(O)=C(Cl)C(=O)c2c(O)ccc(O)c21
2. CCOC(=O)C(=O)Nc1ccc(Cl)c(C(F)(F)F)c1

["> 100 µM (inactive)", "> 100 µM (inactive)"]

* * *

Test system: NCI-H460
Assay: NCI tumour cell line growth inhibition, 48 h
Active and inactive are the calls of the source. Rule as the data show it: active = GI50 up to about 1.1 µM and inactive = higher.
Kindly state GI50 for each of the entries shown.

Example entries begin here.
Record request: GI50 value, item `O=C1Nc2ccccc2Nc2nc3cccccc-3c21`
> 100 µM (inactive)

Record request: GI50 value, item O=C1NC(=O)C23C(=O)NC(=O)C12C1C=CC3CC1 (centres undefined)
> 10 µM (inactive)

Would you mind giving GI50 for every compound in the list below?
1. NC(=O)C(=O)CC(=O)c1ccccc1NC1=CC(=O)C(=O)c2ccccc21
2. COC(=O)C1=C(c2ccc3c(c2)OCO3)OC(c2ccc3c(c2)OCO3)C1 (centres undefined)

98.6 µM (inactive)
> 100 µM (inactive)

Would you mind giving GI50 for every compound in the list below?
1. O=[N+]([O-])/C(C(Cl)=C(Cl)Cl)=C1\Nc2ccccc2O1
2. C/C(=C\c1ccccc1)n1c(=O)cc(C)n1C
3. CCCCCCCCCc1cc(=O)c2ccc(O)cc2o1

> 100 µM (inactive)
> 100 µM (inactive)
57.8 µM (inactive)

Would you mind giving GI50 for every compound in the list below?
1. Cc1cc(C(=O)CBr)c(CN2C(=O)c3ccccc3C2=O)c(=O)n1C
2. CC(C)(C)OC(=O)/C=C/C(=O)O/C=C/[N+](=O)[O-]

1: 26.3 µM (inactive); 2: > 100 µM (inactive)

* * *

Tested on: DMS-114
Assay: NCI tumour cell line growth inhibition, 48 h
Active and inactive are the calls of the source. Rule as the data show it: active = GI50 up to about 1.1 µM and inactive = higher.
Kindly state GI50 for each of the entries shown.

Record request: GI50 value, item `CCc1cc(Cc2cc(CC)c(NC(=O)C(=O)Cc3ccccn3)c(CC)c2Cl)c(Cl)c(CC)c1NC(=O)C(=O)Cc1ccccn1`
96.8 µM (inactive)

Record request: GI50 value, item COc1nc(NC2OCC(O)C(O)C2O)c(NC2OCC(O)C(O)C2O)c(=O)n1C (stereo not given)
> 100 µM (inactive)

Would you mind giving GI50 for every compound in the list below?
1. O=C(NC(Cc1ccc(I)cc1)C(=O)O)c1cccc(Br)c1 (stereo not given)
2. CCCCCCc1cc(C(=O)Nc2cccc(C(F)(F)F)c2)nc(N)n1
3. Cc1nc2c(ccc3ncccc32)[nH]1

48 µM (inactive)
> 100 µM (inactive)
> 100 µM (inactive)

* * *

System: SR
Test: NCI tumour cell line growth inhibition, 48 h
The source made the active and inactive calls. No stated cut-off is given here; in the data, active = GI50 up to about 1.1 µM and inactive = higher.
Write down the outcome that applies. Available outcomes: active, inactive

The following compounds have reported results that may help.
Write down the call the test reported for this compound. Item: `COc1cc(/C=C\c2ccc(SC)cc2)cc(OC)c1OC`
active

Write down the call the test reported for this compound. Item: `O=C1C(O)=C(CN(CCCl)CCCl)C(=O)c2ccccc21`
inactive

Write down the call the test reported for this compound. Item: O=C1CSC(/C=C/c2ccccc2)N1c1ccc(-n2c(-c3ccccc3)nc3ccccc3c2=O)cc1 (stereo not drawn)
inactive

Others:
Write down the call the test reported for this compound. Item: `O=C1OC(c2ccccc2)=N/C1=C/C=C/c1ccco1`
inactive

Write down the call the test reported for this compound. Item: COC(=O)C(Cc1nc2ccccc2nc1O)C(=O)C(=O)Nc1ccc(OC)cc1[N+](=O)[O-] (stereo not drawn)
inactive

Write down the call the test reported for this compound. Item: CCCCN(C)CC(C(C)=O)C(c1ccccc1)c1c(O)c2ccccc2oc1=O (stereo not drawn)
inactive

Write down the call the test reported for this compound. Item: `C=C1CN=C(Nc2ccc(F)cc2F)S1`
inactive

Write down the call the test reported for this compound. Item: `CN(C)/C=N/NC(=O)/C(C#N)=C/N(C)C`
inactive

* * *

Test system: OVCAR-3
Experiment: NCI tumour cell line growth inhibition, 48 h
Active and inactive are the calls of the source. Cut-off read from the data, not from the text of the source: active = GI50 up to about 1.1 µM and inactive = higher.
Kindly state GI50 for each of the entries shown.

Example entries begin here.
Record request: GI50 value, item `O=C1NC(=S)NC(=O)C1C(c1ccc(O)cc1)C1C(=O)NC(=S)NC1=O.c1ccncc1`
> 100 µM (inactive)

Record request: GI50 value, item COc1cc(C(c2ccc3c(c2)OCO3)C2SCCCS2)cc(OC)c1OC (stereo not drawn)
3.14 µM (inactive)

Now examine the next entry.
Record request: GI50 value, item `O=C(O)CN(CC(=O)O)Cc1cc(C#Cc2ccc(C#Cc3ccccc3)cc2)cc(CN(CC(=O)O)CC(=O)O)n1`
9.02 µM (inactive)

* * *

System: SNB-75
Test: NCI tumour cell line growth inhibition, 48 h
The source made the active and inactive calls. Cut-off read from the data, not from the text of the source: active = GI50 up to about 1.1 µM and inactive = higher.
Kindly state GI50 for each of the entries shown.

Record request: GI50 value, item `COc1ccc(/C=C(\C#N)c2nc3ccccc3c(=O)[nH]2)cc1`
23.9 µM (inactive)

Record request: GI50 value, item `C/C(=N\O)c1sc(-n2nc(-c3ccccc3)cc2-c2ccccc2)nc1C`
14.6 µM (inactive)

Record request: GI50 value, item NCC(=O)OCN1C(=O)C2C3C=CC(C2C1=O)C1C2C(=O)N(COC(=O)CN)C(=O)C2C31 (stereo not given)
23.6 µM (inactive)

Record request: GI50 value, item `COc1ccc2nc(NC(=O)C(=O)NNC(=O)c3ccncc3)sc2c1`
> 100 µM (inactive)

Now examine the next entry.
Record request: GI50 value, item C=C1C2CC3CCC2C(OC(=O)c2ccccc2C(=O)O)C13 (stereo not given)
3.1 µM (inactive)

* * *

Tested on: A498
Assay: NCI tumour cell line growth inhibition, 48 h
The source made the active and inactive calls. Rule as the data show it: active = GI50 up to about 1.1 µM and inactive = higher.
Write down the outcome that applies. Available outcomes: label 1 = active, label 0 = inactive

The following molecules have reported results that may help.
Write down the call the test reported for this molecule. Item: O=S1(=O)c2ccccc2C(Nc2ccccc2)N1c1ccccc1 (stereo not given)
label 0

Write down the call the test reported for this molecule. Item: COc1cc(C2c3cc4c(cc3[C@@H](OCCN(C)C)C3COC(=O)[C@H]23)OCO4)cc(OC)c1O (stereo not given in full)
label 1

Write down the call the test reported for this molecule. Item: COc1c2c(cc3nc4ccccc4nc13)CCC(C(C)(C)O)C2 (stereo not given)
label 0

Write down the call the test reported for this molecule. Item: Cc1cccc(C)c1N1C(=O)C(=O)C(c2nc3ccccc3s2)/C(=N/c2cccc3c(=O)[nH][nH]c(=O)c23)C1=O (stereo not given)
label 0

Write down the call the test reported for this molecule. Item: `S=C(N/N=C(/c1ccccc1)c1ccccn1)Nc1ccc(Cl)cc1`
label 0

Others:
Write down the call the test reported for this molecule. Item: CCOC(=O)C1CCCCc2sc(N)c(C#N)c21 (stereo not given)
label 0

* * *

Kindly state GI50 for each of the entries shown.
Tested on: HCT-116
Test: NCI tumour cell line growth inhibition, 48 h
Structures can show the parent of a compound that is named as a salt. The source made the active and inactive calls. Rule as the data show it: active = GI50 up to about 1.1 µM and inactive = higher.

Example entries begin here.
Query the reported GI50 for HCT-116; item: COc1ccc2c3c(c(C(=O)O)oc13)C(CCC(=O)O)CC2 (stereo unspecified)
> 100 µM (inactive)

Query the reported GI50 for HCT-116; item: CC1=CC(=O)CC(C)(C)C1/C=C/C(C)=C/C=C/C(C)=C/C=C/C=C(C)/C=C/C=C(C)/C=C/C1C(C)=CC(=O)CC1(C)C (stereo unspecified)
20.2 µM (inactive)

Query the reported GI50 for HCT-116; item: `CC(C)(C)OC(=O)/C=C/C(=O)O/C=C/[N+](=O)[O-]`
> 100 µM (inactive)

Would you mind giving GI50 for every molecule in the list below?
1. CC1=C(C(=O)Nc2ccc(C)cc2)C(c2cccc([N+](=O)[O-])c2)C(C(=O)Nc2ccc(C)cc2)=C(C)N1
2. N#CC(C#N)=CNCCN1CCN(C=C(C#N)C#N)CC1
3. CCOC(=O)/C=C1\Nc2ccccc2C12CCc1c([nH]c3ccccc13)C2C(=O)OCC (stereo unspecified)
4. CC(=O)O[C@H]1CC[C@@]2(C)C(=CC[C@@H]3[C@@H]2CC[C@]2(C)c4nc(Cl)ccc4C[C@@H]32)C1
5. O=C1c2cnccc2Cc2cccc3c2N1c1ccccc1S3
6. NC(CCC(=O)Nc1ccc(O)cc1)C(=O)O (stereo unspecified)

1: 35.6 µM (inactive); 2: > 100 µM (inactive); 3: 17.6 µM (inactive); 4: 32.6 µM (inactive); 5: 19 µM (inactive); 6: > 100 µM (inactive)

Would you mind giving GI50 for every molecule in the list below?
1. COc1cc(C)c(C)c(OC(=O)c2c(C)c(C)c(OC)c(C)c2OC)c1C
2. CS(=O)(=O)OCCCSCCSCCCOS(C)(=O)=O
3. COC(=O)C(=O)C1CCCCC(C2=NC3NN=C(N)N3C2=O)C1=O (stereo unspecified)

1: 4.1 µM (inactive); 2: > 100 µM (inactive); 3: > 100 µM (inactive)

Would you mind giving GI50 for every molecule in the list below?
1. COc1ccc(C[C@H]2COC(=O)[C@@H]2Cc2ccc(O)cc2)cc1OC
2. CC(C)C1=Cc2ccc3c(c2C(=O)C1=O)CCCC3
3. CC(C)=CC1C(COC(=O)c2ccccc2Cl)C1(C)C (stereo unspecified)
4. CCOC(=O)c1nc2ccccc2nc1Nc1ccc(Cl)c(Cl)c1
5. CN1[C@@H]2CC[C@H]1C[C@@H](OC(c1ccccc1)c1ccccc1)C2 [BENZTROPINE MESYLATE]

1: > 100 µM (inactive); 2: 1.95 µM (inactive); 3: 49.3 µM (inactive); 4: 29 µM (inactive); 5: 12.6 µM (inactive)
